# System under test: human MRGPRX2 (Homo sapiens)
# Sequence (Q96LB1 1-330): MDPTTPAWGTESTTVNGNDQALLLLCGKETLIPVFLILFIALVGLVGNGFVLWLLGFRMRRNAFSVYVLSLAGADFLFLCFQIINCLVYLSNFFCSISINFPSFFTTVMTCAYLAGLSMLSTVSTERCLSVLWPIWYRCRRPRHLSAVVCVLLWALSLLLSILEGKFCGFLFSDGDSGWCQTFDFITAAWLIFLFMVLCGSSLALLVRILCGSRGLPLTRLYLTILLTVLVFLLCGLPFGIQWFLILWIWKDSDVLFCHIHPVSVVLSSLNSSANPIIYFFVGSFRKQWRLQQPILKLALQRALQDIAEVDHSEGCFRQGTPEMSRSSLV
# Assay name: MRGPRX2 Activity Assay (IP-1 HTRF, antagonist mode)
# Recorded conditions: FlpIn TRex-MRGPRX2-HEK293 cells; versus 1 μM Cortistatin-14 agonist; 30 minutes preincubation
Recorded IC50 split into classes lo = under 400 nM, mid = from 400 nM up to 800 nM, hi = 800 nM and over

Some solved entries appear below for comparison.
C[C@H](C(=O)Nc1noc(Cc2cc(F)cc(F)c2)n1)N1CCC(F)(F)[C@@H](c2cc[n+]([O-])cc2)C1 (single isomer, unassigned) [Compound 57] | hi
C[C@@H](C(=O)Nc1cn2c(n1)CC[C@@H]2c1cc(F)cc(F)c1)N1CCC2(CC2)[C@@H](c2cc[n+]([O-])cc2)C1 (single isomer, unassigned) [Compound 521] | hi
C[C@@H](C(=O)Nc1cn2c(n1)[C@H](O)C[C@H]2c1cc(F)cc(F)c1)N1CCC(F)(F)[C@@H](c2ccc(=O)[nH]c2)C1 (single isomer, unassigned) [Compound 518] | hi
C[C@H](C(=O)Nc1nc(Cc2cc(F)cc(F)c2)no1)N1CCC(F)(F)[C@@H](c2cc[n+]([O-])cc2)C1 (single isomer, unassigned) [Compound 59] | mid
C[C@@H](C(=O)Nc1cn2c(n1)[C@H](O)C[C@@H]2c1cc(F)cc(F)c1)N1CCC(F)(F)[C@@H](c2ccc(=O)[nH]c2)C1 (single isomer, unassigned) [Compound 515] | hi

QUERY: Determine which band this molecule sits in: CNCc1cc(C2CN([C@@H](C)C(=O)Nc3cn4c(n3)CC[C@@H]4c3cc(F)cc(F)c3)CCC2(F)F)c[nH]c1=O (stereo partly shown) [Compound 529]
RESULT: lo

QUERY: Determine which band this molecule sits in: C[C@@H](C(=O)Nc1cn2c(n1)CC[C@@H]2c1cc(F)cc(F)c1)N1CCC(F)(F)[C@@H](c2cc[n+]([O-])cc2)C1 (single isomer, unassigned) [Compound 489]
RESULT: lo

QUERY: Determine which band this molecule sits in: C[C@H](C(=O)Nc1cn2c(n1)CC[C@@H]2c1cc(F)cc(F)c1)N1CCOCC1 (single isomer, unassigned) [Compound 512]
RESULT: hi

QUERY: Determine which band this molecule sits in: C[C@@H](C(=O)Nc1cc2n(n1)CC[C@H]2c1cc(F)cc(F)c1)N1CCC(F)(F)[C@@H](c2ccc(=O)[nH]c2)C1 (single isomer, unassigned) [Compound 531]
RESULT: mid

====

# System under test: human MRGPRX2 (Homo sapiens, UniProt Q96LB1)
# Assay name: MRGPRX2 Activity Assay (IP-1 HTRF, antagonist mode)
# Recorded conditions: FlpIn TRex-MRGPRX2-HEK293 cells; versus 1 μM Cortistatin-14 agonist; 30 minutes preincubation
Quantity measured: IC50 (nM)
Number only, in nM; omit the unit.

C[C@H](C(=O)Nc1cn(Cc2cc(F)cc(F)c2)cn1)N1CCC(F)(F)[C@@H](c2cc[n+]([O-])cc2)C1 (single isomer, unassigned) | 9

Please turn your attention to the following entry.
QUERY: Output IC50 of C[C@@H](C(=O)Nc1cn(Cc2cc(F)cc(F)c2)c(C(F)F)n1)N1CCC(F)(F)[C@H](c2c[nH]c(=O)c(CO)c2)C1 (single isomer, unassigned)
RESULT: 1640
